- targetOrSystem: furin, P09958;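 note: purified furin at 1:10 enzyme:substrate in 50 mM HEPES pH 7.5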
- Sequence (P09958 whole entry): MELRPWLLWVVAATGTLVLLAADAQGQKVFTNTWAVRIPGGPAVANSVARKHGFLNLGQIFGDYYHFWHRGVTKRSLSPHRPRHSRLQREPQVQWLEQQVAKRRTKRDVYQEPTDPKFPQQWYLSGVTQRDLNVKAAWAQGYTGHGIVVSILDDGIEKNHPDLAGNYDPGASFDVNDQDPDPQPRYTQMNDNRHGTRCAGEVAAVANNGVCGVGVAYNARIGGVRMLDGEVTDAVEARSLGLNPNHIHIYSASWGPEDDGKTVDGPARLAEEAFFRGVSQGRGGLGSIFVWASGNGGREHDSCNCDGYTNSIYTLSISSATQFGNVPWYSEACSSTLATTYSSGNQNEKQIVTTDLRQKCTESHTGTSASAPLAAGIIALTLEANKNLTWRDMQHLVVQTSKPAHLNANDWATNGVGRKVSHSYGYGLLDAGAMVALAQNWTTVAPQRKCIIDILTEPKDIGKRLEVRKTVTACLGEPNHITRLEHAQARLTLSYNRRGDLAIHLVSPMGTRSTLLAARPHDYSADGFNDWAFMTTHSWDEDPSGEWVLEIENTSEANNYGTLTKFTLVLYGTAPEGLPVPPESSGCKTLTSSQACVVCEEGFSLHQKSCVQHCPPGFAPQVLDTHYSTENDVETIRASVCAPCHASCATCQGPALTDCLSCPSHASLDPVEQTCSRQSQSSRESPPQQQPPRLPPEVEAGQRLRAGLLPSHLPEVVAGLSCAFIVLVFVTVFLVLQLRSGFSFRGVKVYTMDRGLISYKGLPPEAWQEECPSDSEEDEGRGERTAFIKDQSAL
- assayExplanation: furin cleavage Z-score vs untreated control; higher = more cleavage, active = 3.5 or more, inactive = 1 or less, 8 variable residues between constant flanks
- conditions: 7.5 min
The other results are listed elsewhere or left out. How many sequences the whole screen found active is unknown.
readout: furin cleavage Z-score
Lab note: record the figure alone, no unit after it.

Record excerpt, results attached:
>>> df
                 sequencerecord  reported
0    CAYLLPRRGPAGNASASA [HC178]    -0.496
1  CAYLLRRRRNAGNASASA [FS-1620]       5.7
2    CAATRDGKLPAGNASASA [HC284]     0.288
3  CARPSRQIHKAGNASASA [FS-2286]      1.18
4   CALTPCSGSWAGNASASA [HC1825]     -0.28
5   CATSSRRKRDAGNASASA [FS-630]        11
6    CAEAALENLVAGNASASA [HC533]    -0.446
7  CADWLRQRRTAGNASASA [FS-1317]    -0.575

Request the reported furin cleavage Z-score associated with CASSDLYLVTAGNASASA [HC724]
-0.584

Request the reported furin cleavage Z-score associated with CARRRRERRTAGNASASA [FS-375]
10.4

Request the reported furin cleavage Z-score associated with CADTEVAASCAGNASASA [HC566]
0.247

Request the reported furin cleavage Z-score associated with CACQQRFKRKAGNASASA [FS-1516]
9.6

Request the reported furin cleavage Z-score associated with CAGVGRVLRSAGNASASA [FS-129]
7

Request the reported furin cleavage Z-score associated with CAFQYSPGQRAGNASASA [HC1467]
-0.221
